Provide the recorded Ki for the entries that follow.
Target: human CB2 (Homo sapiens, UniProt P34972)
Sequence (P34972 whole entry): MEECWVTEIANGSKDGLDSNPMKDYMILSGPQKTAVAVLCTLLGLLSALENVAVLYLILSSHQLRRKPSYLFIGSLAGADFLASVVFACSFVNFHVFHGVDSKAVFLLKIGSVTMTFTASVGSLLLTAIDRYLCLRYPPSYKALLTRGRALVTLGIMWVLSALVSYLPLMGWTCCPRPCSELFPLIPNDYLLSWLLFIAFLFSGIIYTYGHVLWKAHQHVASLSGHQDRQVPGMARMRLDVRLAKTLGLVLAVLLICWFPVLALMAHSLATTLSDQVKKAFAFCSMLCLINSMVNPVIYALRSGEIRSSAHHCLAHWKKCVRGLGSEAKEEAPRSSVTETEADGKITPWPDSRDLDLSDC
Assay: Tango β-arrestin recruitment antagonist assay at CB2
Assay type: cell-based
Parameters: expressed in transfected cells; host or cells: HTLA cells
Details: Tango antagonist assay with 100 nM CP55940; n=4 independent assays, 16 dose-response points; read-out: CB2 Antagonist potency Ki
Write the answer as a number in µM, unit excluded.

Noted for Cn1ccc(-n2cc(-c3csc(C(NC(=O)c4ccccc4)c4ccccc4)n3)nn2)n1 (centres unmarked) : its Ki reads 6.92

Noted for COc1ccc(-c2nccc(N3CCCC(Cc4ccc(N)nc4)C3)n2)cc1 (centres unmarked) : its Ki reads 3.77

Noted for C=CCC1(S(=O)(=O)NC(=O)c2ccc(N3CCCCC3)c(S(=O)(=O)N3CCCCCC3)c2)CC1 : its Ki reads 1.59

Noted for CC1(C)NC(=O)N(CCCNC(=O)NCc2oc3ccc(Cl)cc3c2-c2ccccc2)C1=O : its Ki reads 4.25

Noted for CS(C)(=O)=NS(=O)(=O)c1cccc(C(=O)OCc2cccc3ccsc23)c1 : its Ki reads 12.2

Noted for CCCC(NS(=O)(=O)C1CC2(CC2)C1)C(=O)Nc1cccc(N2CCCC2)c1 (centres unmarked) : its Ki reads 1.86

Noted for O=C(Nc1ccn(C2CCCCC2)n1)C(=O)NC(CCc1ccccc1)c1ccccc1 (centres unmarked) : its Ki reads 4.17

Noted for O=C1Cc2cc(NC(=O)C(=O)NC(CCc3ccccc3)c3ccccc3)ccc2N1 (centres unmarked) : its Ki reads 3.81

* * *

Target: human CB2 (Homo sapiens, UniProt P34972)
Assay: Tango β-arrestin recruitment antagonist assay at CB2
Format: cell-based
Set-up: expressed in transfected cells; host or cells: HTLA cells
Conditions: Tango antagonist assay with 100 nM CP55940; n=4 independent assays, 16 dose-response points; read-out: CB2 Antagonist potency Ki
pKi: −log10 of the molar value.
pKi vs 5: at or above is Condition met, below is Condition not met.

Enquiry: Is pKi at least 5? Consider Cc1ccc(NC(=O)Nc2ccn(C3CCOCC3)n2)cc1S(=O)(=O)N1CCCCCC1 [BRI-13505]
Return: Condition met

Enquiry: Is pKi at least 5? Consider O=C(NCC1(Cc2ccccc2)CC=CCC1)C(=O)Nc1c(F)ccc(Br)c1F (centres unmarked) [BRI-13566]
Return: Condition met

Enquiry: Is pKi at least 5? Consider Cc1ccc(CN(Cc2ccco2)S(=O)(=O)c2cnn(-c3ccccc3F)c2)s1 [BRI-13668]
Return: Condition met

Enquiry: Is pKi at least 5? Consider O=S(=O)(NC1CC1)c1ccc(S(=O)(=O)NC(CCc2ccccc2)c2ccccn2)cc1 (centres unmarked) [BRI-13661]
Return: Condition met

Enquiry: Is pKi at least 5? Consider O=C1CCc2cc(OCCNC(=O)N(Cc3ccccc3)Cc3ccc(F)cc3)ccc2N1 [BRI-13619]
Return: Condition met

Enquiry: Is pKi at least 5? Consider O=C(C1CC1)N1CCc2ccc(S(=O)(=O)NC(CCc3ccccc3)c3ccccn3)cc21 (centres unmarked) [BRI-13663]
Return: Condition not met

* * *

Provide the recorded Ki for the entries that follow.
Molecular target: human CB2 (Homo sapiens, UniProt P34972)
Experiment: Tango β-arrestin recruitment antagonist assay at CB2
Assay type: cell-based
Set-up: expressed in transfected cells; host or cells: HTLA cells
Details: Tango antagonist assay with 100 nM CP55940; n=4 independent assays, 16 dose-response points; read-out: CB2 Antagonist potency Ki
Write the answer as a number in nM, unit excluded.

Noted for Cc1ccc(NC(=O)N2CCC(O)(c3ccccc3F)C2)cc1S(=O)(=O)N1CCCCCC1 (stereo not shown) : its Ki reads 2440

Noted for N#Cc1ccc(C(=O)NCCN(Cc2ccccc2)C(=O)c2cc(C(F)(F)F)cs2)s1 : its Ki reads 1530

Noted for Cc1cc(Cl)cn2cc(CNC(=O)C(=O)NC(COc3ccccc3)c3ccccc3)nc12 (stereo not shown) : its Ki reads 5200

Noted for O=C(c1ccc(F)cc1)c1cc(Cl)ccc1NS(=O)(=O)c1cnn(C2CCCCC2)c1 : its Ki reads 820
